- MEASURED_TARGET: T1, 630 SLP (surface layer protein of C. difficile strain 630, HMW and LMW subunits) (Clostridioides difficile 630 (ribotype …, UniProt Q183M8, strain))
- T1 construct: low-molecular-weight (LMW) subunit of the surface layer protein, cut from the precursor SlpA by Cwp84, C. difficile strain 630 (ribotype 012); predicted mass 34.2 kDa; high-molecular-weight (HMW) subunit of the surface layer protein, cut from the precursor SlpA by Cwp84, C. difficile strain 630 (ribotype 012); predicted mass 39.5 kDa; Both subunits come from one precursor, SlpA; source: purified …
- ASSAY_SUMMARY: ELISA; monoclonal phage ELISA: phage-displayed VHHs on immobilized SLPs
- MEASUREMENT_PARAMETERS: one partner purified
READOUT: binding result

[
  {
    "BINDER": "SLP_VHH49 displayed on phage (VHH, as the VHH of m8) VHH: QVKLEESGGGLVQAGGSLRLSCAASEGAFSDALSRHAAGWFRQAPGKEREFVAAISWNGANTDYKNSVNNRFTISRDTSKNTVYLQMNSLKPEDTAVYYCAAKNEPSWISRIYYRGLEYDYWGQGTQVTVSS",
    "EXPERIMENTAL_VALUE": "no binding"
  },
  {
    "BINDER": "SLP_VHH50 displayed on phage (VHH, as the VHH of m9) VHH: QVKLEESGGGLVQPGGSLRLSCAASGFTLDYYTIGWFRQAPGKEREGVACISSDDRTYYVDSVKGRFAISRDNVKNTVYLQMNNLKPEDTAVYYCASKESVFLIATMKGCAPGHDDYWGQGTQVTVSS",
    "EXPERIMENTAL_VALUE": "no binding"
  },
  {
    "BINDER": "SLP_VHH23 displayed on phage (VHH, as the VHH of m5) VHH: QVQLVESGGGLVQAGGSLRLSCAASGRTFSSYAVGWFRQAPGKEREFVAAISWSGGYTDYADSVKGRFTISRDNAKNTVYLQMNNLKPEDTAVYYCAADWSHPENKAELLRLRLWVLSAESSDDWGQGTQVTVSS",
    "EXPERIMENTAL_VALUE": "no binding"
  },
  {
    "BINDER": "SLP_VHH12 displayed on phage (VHH, as the VHH of m3) VHH: QVQLVESGGGLVQAGDSLRLSCAASGGTFSSYAVGWFRQAPGKERQFVAAISWSGRSTEYADSVKGRFTISRDNAKNTVYLQMNSLQPDDTGVYYCAADWSHPENKAELLRLRLWVLSAESSDYWGQGTQVTVSS",
    "EXPERIMENTAL_VALUE": "no binding"
  }
]
